The reported measurements were obtained from patent US20230339854A1.

target: human GluN1^FA,TL/GluN3A receptors (Homo sapiens, UniProt Q8TCU5); construct: Human GluN3A (NP_597702.2) and rat GluN3B (NP_579842.2) were synthesized and subcloned into SP6 plasmids; expressed in transfected cells; host or cells: Xenopus laevis oocytes, cRNA injection (GluN1:GluN3 1:3); experiment: Two-electrode voltage-clamp recordings of GluN1^FA,TL/GluN3A receptors in Xenopus oocytes; assay type: cell-based; conditions: read-out: hGluN1^FA,TL/hGluN3A (100 × Idrug/Icontrol at 30 μM drug)
Sequence (Q8TCU5 24-1115, other chains not shown): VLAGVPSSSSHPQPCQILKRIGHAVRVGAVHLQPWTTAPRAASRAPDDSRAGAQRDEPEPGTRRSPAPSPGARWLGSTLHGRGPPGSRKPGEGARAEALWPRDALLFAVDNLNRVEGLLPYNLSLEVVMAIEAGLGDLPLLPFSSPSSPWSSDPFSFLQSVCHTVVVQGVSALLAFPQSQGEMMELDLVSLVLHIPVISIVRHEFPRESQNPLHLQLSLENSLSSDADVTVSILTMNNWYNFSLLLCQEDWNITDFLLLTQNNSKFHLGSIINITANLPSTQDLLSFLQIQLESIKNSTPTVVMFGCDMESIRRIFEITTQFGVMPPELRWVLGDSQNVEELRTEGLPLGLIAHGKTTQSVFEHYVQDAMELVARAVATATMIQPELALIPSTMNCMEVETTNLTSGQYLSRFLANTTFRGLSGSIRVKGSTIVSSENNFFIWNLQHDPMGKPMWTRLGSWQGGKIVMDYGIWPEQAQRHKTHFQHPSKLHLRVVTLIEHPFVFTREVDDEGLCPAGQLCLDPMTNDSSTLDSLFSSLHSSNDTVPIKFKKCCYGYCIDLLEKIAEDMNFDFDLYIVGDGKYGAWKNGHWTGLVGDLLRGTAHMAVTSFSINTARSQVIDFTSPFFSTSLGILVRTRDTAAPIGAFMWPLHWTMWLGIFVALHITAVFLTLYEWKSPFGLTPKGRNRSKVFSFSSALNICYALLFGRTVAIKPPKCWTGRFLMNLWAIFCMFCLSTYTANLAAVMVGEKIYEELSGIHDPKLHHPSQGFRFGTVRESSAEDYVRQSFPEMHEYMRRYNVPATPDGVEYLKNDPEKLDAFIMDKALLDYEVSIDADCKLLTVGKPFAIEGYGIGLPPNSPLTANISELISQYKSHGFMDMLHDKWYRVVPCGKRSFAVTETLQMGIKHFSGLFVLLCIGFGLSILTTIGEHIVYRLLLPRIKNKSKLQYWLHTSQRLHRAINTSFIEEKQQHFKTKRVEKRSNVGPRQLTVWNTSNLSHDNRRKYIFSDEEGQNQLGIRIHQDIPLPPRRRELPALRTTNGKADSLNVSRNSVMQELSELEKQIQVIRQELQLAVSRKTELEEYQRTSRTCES
remaining activity at 30 µM: recorded values
Just the number please, in %, no unit attached.

COc1ccc(OCC(c2ccc(OC)cc2)N2Cc3ccc(Br)cc3C2=O)cc1 (stereo not drawn) [EU1180-520]; 64
COc1ccc(OCC(c2ccc(OC)c(OC)c2)N2Cc3ccc(F)cc3C2=O)cc1 (stereo not drawn) [EU1180-529]; 84
COc1ccc(C(COc2cccc(C)n2)N2Cc3ccc(F)cc3C2=O)c(F)c1 (stereo not drawn) [EU1180-602]; 73

### Prompt Dear colleague, please send me the reported remaining activity at 30 µM for COc1ccc(OCC(c2ccc(OC)cc2)N2Cc3ccc(C(F)(F)F)cc3C2=O)cc1 (stereo not drawn) [EU1180-518] when you can.
### Response 86

### Prompt Dear colleague, please send me the reported remaining activity at 30 µM for CC(C)Oc1ccc(C(COc2ccc(OC(F)(F)F)cc2)N2Cc3ccc(F)cc3C2=O)cc1 (stereo not drawn) [EU1180-542] when you can.
### Response 98

### Prompt Dear colleague, please send me the reported remaining activity at 30 µM for Cc1cccc(OCC(c2ccc(OC(C)C)cc2)N2Cc3cc(F)ccc3C2=O)n1 (stereo not drawn) [EU1180-513] when you can.
### Response 87

* * *

Molecular target: human GluN1^FA,TL/GluN3A receptors (Homo sapiens, UniProt Q8TCU5)
Construct: Human GluN3A (NP_597702.2) and rat GluN3B (NP_579842.2) were synthesized and subcloned into SP6 plasmids; expressed in transfected cells; host or cells: Xenopus laevis oocytes, cRNA injection (GluN1:GluN3 1:3)
Test: Two-electrode voltage-clamp recordings of GluN1^FA,TL/GluN3A receptors in Xenopus oocytes
Type: cell-based
Details: read-out: hGluN1^FA,TL/hGluN3A (100 × Idrug/Icontrol at 30 μM drug)
From the text: cDNA encoding human wild-type (WT) GluN1-1a (GenBank accession numbers NP_015566, hereafter GluN1) and rat GluN1-1a (NP_058706.1) were synthesized and subcloned into pGEMHE plasmid; some experiments used the rat splice variant GluN1-4a (NP_001257531.1). Human GluN3A (NP_597702.2) and rat GluN3B (NP_579842.2) were synthesized and subcloned into SP6 plasmids. […]
remaining activity at 30 µM: recorded values
Just the number please, in %, no unit attached.

Some entries whose results are on file:
CC(C)Oc1ccc(C(COc2ccc(OC(F)(F)F)cc2)N2Cc3ccc(C(F)(F)F)cc3C2=O)cc1 (stereo not drawn); 99
COc1ccc(C(COc2cccc(C)n2)N2Cc3ccccc3C2=O)c(F)c1 (stereo not drawn); 87

### Prompt Dear colleague, please send me the reported remaining activity at 30 µM for COc1ccc(OCC(c2c(F)cc(OC)cc2F)N2Cc3ccccc3C2=O)cc1 (stereo not drawn) when you can.
### Response 74

### Prompt Dear colleague, please send me the reported remaining activity at 30 µM for COc1ccc(OCC(c2ccc(OC)c(OC)c2)N2Cc3ccc(Cl)cc3C2=O)cc1 (stereo not drawn) when you can.
### Response 94

### Prompt Dear colleague, please send me the reported remaining activity at 30 µM for COc1ccc(OCC(c2ccc(OC)c(OC)c2)N2Cc3ccc(Br)cc3C2=O)cc1 (stereo not drawn) when you can.
### Response 94

### Prompt Dear colleague, please send me the reported remaining activity at 30 µM for CC(C)Oc1ccc(C(COc2ccc(OC(F)(F)F)cc2)N2Cc3ccc(Br)cc3C2=O)cc1 (stereo not drawn) when you can.
### Response 101

### Prompt Dear colleague, please send me the reported remaining activity at 30 µM for COc1ccc(OCC(c2ccc(OC)cc2F)N2Cc3ccc(C(F)(F)F)cc3C2=O)cc1 (stereo not drawn) when you can.
### Response 99

* * *

biological target: human GluN1^FA,TL/GluN3A receptors (Homo sapiens, UniProt Q8TCU5); construct: Human GluN3A (NP_597702.2) and rat GluN3B (NP_579842.2) were synthesized and subcloned into SP6 plasmids; expressed in transfected cells; host or cells: Xenopus laevis oocytes, cRNA injection (GluN1:GluN3 1:3); test: Two-electrode voltage-clamp recordings of GluN1^FA,TL/GluN3A receptors in Xenopus oocytes; assay type: cell-based; conditions: read-out: hGluN1^FA,TL/hGluN3A (100 × Idrug/Icontrol at 30 μM drug)
So basically: is remaining activity at 30 µM under 90%? Then YES. Not under? Then NO.

Examples from the recorded data:
CC(C)Oc1ccc(C(COc2ccc(OC(F)(F)F)cc2)N2Cc3cc(Cl)ccc3C2=O)cc1 (centres unmarked) [EU1180-541]; NO
COc1ccc(OCC(c2ccc(OC)cc2F)N2Cc3cc(F)ccc3C2=O)cc1 (centres unmarked) [EU1180-536]; YES
CC(C)Oc1ccc(C(COc2ccc(OC(F)(F)F)cc2)N2Cc3ccc(Cl)cc3C2=O)cc1 (centres unmarked) [EU1180-540]; NO
CC(C)Oc1ccc(C(COc2ccc(C(F)(F)F)cc2)N2Cc3cc(Br)ccc3C2=O)cc1 (centres unmarked) [EU1180-578]; NO
COc1ccc(OCC(c2ccc(OC)cc2F)N2Cc3cc(Cl)ccc3C2=O)cc1 (centres unmarked) [EU1180-532]; NO

### Prompt State whether 90% exceeds remaining activity at 30 µM recorded for COc1ccc(OCC(c2c(F)cc(OC)cc2F)N2Cc3ccc(Br)cc3C2=O)cc1 (centres unmarked) [EU1180-550] .
### Response NO

### Prompt State whether 90% exceeds remaining activity at 30 µM recorded for COc1ccc(OCC(c2ccc(OC)cc2F)N2Cc3cc(Br)ccc3C2=O)cc1 (centres unmarked) [EU1180-534] .
### Response NO

### Prompt State whether 90% exceeds remaining activity at 30 µM recorded for COc1ccc(OCC(c2ccc(OC)cc2F)N2Cc3ccc(F)cc3C2=O)cc1 (centres unmarked) [EU1180-537] .
### Response YES

### Prompt State whether 90% exceeds remaining activity at 30 µM recorded for COc1ccc(C(COc2cccc(C)n2)N2Cc3ccc(C(F)(F)F)cc3C2=O)cc1 (centres unmarked) [EU1180-593] .
### Response YES
